src = ChEMBL document CHEMBL4619750

Parameter 'readout' = Ki; parameter 'system' = Carbonic anhydrase 1 (Homo sapiens, UniProt P00915).
Sequence (P00915 whole entry): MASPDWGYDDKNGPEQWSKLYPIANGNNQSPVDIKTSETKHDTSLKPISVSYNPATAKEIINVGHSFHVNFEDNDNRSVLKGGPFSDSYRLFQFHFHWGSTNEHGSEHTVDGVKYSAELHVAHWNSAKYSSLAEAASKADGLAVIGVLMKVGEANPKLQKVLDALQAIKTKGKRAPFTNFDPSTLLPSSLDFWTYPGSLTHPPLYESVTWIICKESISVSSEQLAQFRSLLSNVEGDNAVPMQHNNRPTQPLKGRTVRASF
readout_label: Ki

[[record]]
entry_smiles = "COC(=O)C1=Cc2cccc(OC)c2OC(=O)C1"
recorded_value = "> 100 µM"

[[record]]
entry_smiles = "CCN(CC)c1ccc2c(c1)OC(=O)CC(C(=O)OC)=C2"
recorded_value = "> 100 µM"

[[record]]
entry_smiles = "COC(=O)C1=Cc2cc(C(=O)OC)ccc2OC(=O)C1"
recorded_value = "> 100 µM"

[[record]]
entry_smiles = "COC(=O)C1=Cc2ccc3ccccc3c2OC(=O)C1"
recorded_value = "> 100 µM"


* * *

Biological target: Carbonic anhydrase 2 (Homo sapiens, UniProt P00918)
Assay: Inhibition of human carbonic anhydrase 2 assessed as inhibitory constant incubated for 6 hrs by stopped-flow CO2 hydration assay
pKi: −log10 of the molar value.
Listed compounds paired with reported pKi
readout_label: pKi

[[record]]
entry_smiles = "COC(=O)C1=Cc2cc(Cl)ccc2OC(=O)C1"
readout_label = "pKi"
recorded_value = 4.12

[[record]]
entry_smiles = "COC(=O)C1=Cc2ccc3ccccc3c2OC(=O)C1"
readout_label = "pKi"
recorded_value = "< 4.00"

[[record]]
entry_smiles = "CCN(CC)c1ccc2c(c1)OC(=O)CC(C(=O)OC)=C2"
readout_label = "pKi"
recorded_value = "< 4.00"

[[record]]
entry_smiles = "COC(=O)C1=Cc2cccc(OC)c2OC(=O)C1"
readout_label = "pKi"
recorded_value = "< 4.00"

[[record]]
entry_smiles = "COC(=O)C1=Cc2ccc(OC)cc2OC(=O)C1"
readout_label = "pKi"
recorded_value = "< 4.00"

[[record]]
entry_smiles = "COC(=O)C1=Cc2cc(OC)ccc2OC(=O)C1"
readout_label = "pKi"
recorded_value = 4.18


* * *

Parameter 'readout' = Ki; parameter 'system' = Carbonic anhydrase 9 (Homo sapiens, UniProt Q16790).
readout_label: Ki (nM)

[[record]]
entry_smiles = "COC(=O)C1=Cc2cc(C)ccc2OC(=O)C1"
study_target = "Carbonic anhydrase 9 (Homo sapiens, UniProt Q16790)"
readout_label = "Ki"
recorded_value = 71.7

[[record]]
entry_smiles = "CCN(CC)c1ccc2c(c1)OC(=O)CC(C(=O)OC)=C2"
study_target = "Carbonic anhydrase 9 (Homo sapiens, UniProt Q16790)"
readout_label = "Ki"
recorded_value = 93.4

